The origin of these recorded values is the supplement of paper PMC8007513.

# System: Trichoderma virens ATCC 9645
# Test method notes: growth yield (OD600) with compound + IPBC relative to untreated control; higher = less growth inhibition
# Recorded conditions: compound concentration: 100 uM; IPBC concentration: 200 ng/ml; 72 h
Structures can show the parent of a compound that is named as a salt. Among all 1,300 compounds or so, about 130 (10%) showed an effect of 50% or more. What follows is part of a selection rich in strong results, with near analogues and random picks from the rest.
Lab note: class by growth yield, see 1 (below 80%), 2 (80% to below 90%), 3 (90% or more)

Take a look at these entries with their results.
[[record]]
compound = "CN(C)[C@@H]1C(O)=C(C(N)=O)C(=O)[C@@]2(O)C(O)=C3C(=O)c4c(O)ccc(Cl)c4[C@@H](O)[C@H]3C[C@@H]12 [Demeclocycline hydrochloride] + CCCCNC(=O)OCC#CI [3-iodo-2-propynyl butylcarbamate (IPBC)]"
assayed_system = "Trichoderma virens ATCC 9645"
category_label = 1

[[record]]
compound = "C/C(=C\\C(=O)OCCCCCCCCC(=O)O)C[C@@H]1OC[C@H](C[C@@H]2O[C@H]2[C@@H](C)[C@H](C)O)[C@@H](O)[C@H]1O [Mupirocin] + CCCCNC(=O)OCC#CI [3-iodo-2-propynyl butylcarbamate (IPBC)]"
assayed_system = "Trichoderma virens ATCC 9645"
category_label = 1

[[record]]
compound = "CCCCCCCCCCCCCCCC[N+](C)(C)CCN(Cc1ccc(OC)cc1)c1ncccn1 [Thonzonium bromide] + CCCCNC(=O)OCC#CI [3-iodo-2-propynyl butylcarbamate (IPBC)]"
assayed_system = "Trichoderma virens ATCC 9645"
category_label = 1

[[record]]
compound = "CN(CCOc1ccc(CC2SC(=O)NC2=O)cc1)c1ccccn1 (stereo not given) [Rosiglitazone Hydrochloride] + CCCCNC(=O)OCC#CI [3-iodo-2-propynyl butylcarbamate (IPBC)]"
assayed_system = "Trichoderma virens ATCC 9645"
category_label = 2

[[record]]
compound = "COc1cnc(NS(=O)(=O)c2ccc(N)cc2)nc1 [Sulfameter] + CCCCNC(=O)OCC#CI [3-iodo-2-propynyl butylcarbamate (IPBC)]"
assayed_system = "Trichoderma virens ATCC 9645"
category_label = 3


Continue with the compound presented below.
# classify by growth yield band: CCCCC1(COC(=O)CCC(=O)O)C(=O)N(c2ccccc2)N(c2ccccc2)C1=O [Suxibuzone] + CCCCNC(=O)OCC#CI [3-iodo-2-propynyl butylcarbamate (IPBC)]
3

###

# System: Trichoderma virens ATCC 9645
# Test method notes: growth yield (OD600) with compound + IPBC relative to untreated control; higher = less growth inhibition
# Recorded conditions: compound concentration: 100 uM; IPBC concentration: 200 ng/ml; 72 h
Where a name gives a salt, the structure may show the parent alone. In all, about 1,300 compounds went through this assay and about 130 (10%) showed an effect of 50% or more. What follows is part of a selection rich in strong results, with near analogues and random picks from the rest.
Recorded endpoint: growth yield
Entry format: amount then unit.

[[record]]
molecule = "CN1C[C@H](C(=O)N[C@]2(C)O[C@@]3(O)[C@@H]4CCCN4C(=O)[C@H](Cc4ccccc4)N3C2=O)C[C@@H]2c3cccc4[nH]cc(c34)C[C@H]21 [Dihydroergotamine tartrate] + CCCCNC(=O)OCC#CI [3-iodo-2-propynyl butylcarbamate (IPBC)]"
recorded_endpoint = "growth yield"
result = "107%"

[[record]]
molecule = "CO[C@]12C[C@@H](COC(=O)c3cncc(Br)c3)CN(C)[C@@H]1Cc1cn(C)c3cccc2c13 [Nicergoline] + CCCCNC(=O)OCC#CI [3-iodo-2-propynyl butylcarbamate (IPBC)]"
recorded_endpoint = "growth yield"
result = "93%"

[[record]]
molecule = "Cc1ccc(-c2ncc(Cl)cc2-c2ccc(S(C)(=O)=O)cc2)cn1 [Etoricoxib] + CCCCNC(=O)OCC#CI [3-iodo-2-propynyl butylcarbamate (IPBC)]"
recorded_endpoint = "growth yield"
result = "91.1%"


Query molecule follows.
Report growth yield for CO[C@H]1/C=C/O[C@@]2(C)Oc3c(C)c(O)c4c(c3C2=O)C2=NC3(CCN(CC(C)C)CC3)NC2=C(NC(=O)/C(C)=C\C=C\[C@H](C)[C@H](O)[C@@H](C)[C@@H](O)[C@@H](C)[C@H](OC(C)=O)[C@@H]1C)C4=O [Rifabutin] + CCCCNC(=O)OCC#CI [3-iodo-2-propynyl butylcarbamate (IPBC)] please.
97.1%

###

# Test system: Trichoderma virens ATCC 9645
# Test method notes: growth yield (OD600) with compound + IPBC relative to untreated control; higher = less growth inhibition
# Recorded conditions: compound concentration: 100 uM; IPBC concentration: 200 ng/ml; 72 h
Where a name gives a salt, the structure may show the parent alone. Among all 1,300 compounds or so, about 130 (10%) showed an effect of 50% or more. Shown is part of a subset that was picked to be rich in strong results.
Measured growth yield, listed per entry.

[[record]]
compound = "CC(C)(C)c1ccc(C(O)CCCN2CCC(C(O)(c3ccccc3)c3ccccc3)CC2)cc1 (centres undefined) [Terfenadine] + CCCCNC(=O)OCC#CI [3-iodo-2-propynyl butylcarbamate (IPBC)]"
assayed_system = "Trichoderma virens ATCC 9645"
recorded_endpoint = "growth yield"
result = "90.1%"

[[record]]
compound = "CC(C)C(=O)OCC(=O)[C@@]12O[C@H](C3CCCCC3)O[C@@H]1C[C@H]1[C@@H]3CCC4=CC(=O)C=C[C@]4(C)[C@H]3[C@@H](O)C[C@@]12C [Ciclesonide] + CCCCNC(=O)OCC#CI [3-iodo-2-propynyl butylcarbamate (IPBC)]"
assayed_system = "Trichoderma virens ATCC 9645"
recorded_endpoint = "growth yield"
result = "103%"

[[record]]
compound = "CC(C)c1cccc(C(C)C)c1O [Propofol] + CCCCNC(=O)OCC#CI [3-iodo-2-propynyl butylcarbamate (IPBC)]"
assayed_system = "Trichoderma virens ATCC 9645"
recorded_endpoint = "growth yield"
result = "98.4%"


Report growth yield for NS(=O)(=O)c1cc2c(cc1C(F)(F)F)NCNS2(=O)=O [Hydroflumethiazide] + CCCCNC(=O)OCC#CI [3-iodo-2-propynyl butylcarbamate (IPBC)] please.
92.4%

Report growth yield for OC(c1ccccc1)(c1ccccc1)C1CCNCC1 [Azacyclonol] + CCCCNC(=O)OCC#CI [3-iodo-2-propynyl butylcarbamate (IPBC)] please.
91.2%

Report growth yield for NS(=O)(=O)c1cc2c(cc1Cl)NC(CC1CCCC1)NS2(=O)=O (centres undefined) [Cyclopenthiazide] + CCCCNC(=O)OCC#CI [3-iodo-2-propynyl butylcarbamate (IPBC)] please.
98.5%

Report growth yield for CC[C@H]1OC(=O)C[C@@H](O)[C@H](C)[C@@H](O[C@@H]2O[C@H](C)[C@@H](O[C@H]3C[C@@](C)(O)[C@@H](O)[C@H](C)O3)[C@H](N(C)C)[C@H]2O)[C@@H](CC=O)C[C@@H](C)C(=O)/C=C/C(C)=C/[C@@H]1CO[C@@H]1O[C@H](C)[C@@H](O)[C@@H](OC)[C@H]1OC [Tylosin] + CCCCNC(=O)OCC#CI [3-iodo-2-propynyl butylcarbamate (IPBC)] please.
95.1%

Report growth yield for CN[C@@H]1[C@H](O)[C@H](NC)[C@H]2O[C@@]3(O)C(=O)C[C@@H](C)O[C@H]3O[C@@H]2[C@H]1O [Spectinomycin dihydrochloride] + CCCCNC(=O)OCC#CI [3-iodo-2-propynyl butylcarbamate (IPBC)] please.
103%

Report growth yield for CC(=O)N[C@@H](CC(=O)N[C@@H](CCC(=O)O)C(=O)O)C(=O)O [Spaglumic acid] + CCCCNC(=O)OCC#CI [3-iodo-2-propynyl butylcarbamate (IPBC)] please.
95.1%

###

# Test system: Trichoderma virens ATCC 9645
# Test method notes: growth yield (OD600) with compound + IPBC relative to untreated control; higher = less growth inhibition
# Recorded conditions: compound concentration: 100 uM; IPBC concentration: 200 ng/ml; 72 h
Where a name gives a salt, the structure may show the parent alone. Screen size: about 1,300 compounds; about 130 (10%) showed an effect of 50% or more. The sample holds strong results, similar compounds and a random draw of the others, so the mix is not that of the screen.
Label Criterion met for high-side growth yield (at or above 80%) and Criterion not met for low-side growth yield (below it).

[[record]]
molecule = "C[C@H]1NC(=O)NC1=O [Methylhydantoin-5-(D)] + CCCCNC(=O)OCC#CI [3-iodo-2-propynyl butylcarbamate (IPBC)]"
category_label = "Criterion met"


Decide: growth yield of COc1ccc(OC)c(C(O)CNC(=O)CN)c1 (stereo unspecified) [Midodrine hydrochloride] + CCCCNC(=O)OCC#CI [3-iodo-2-propynyl butylcarbamate (IPBC)] >= 80%?
Criterion met

Decide: growth yield of N[C@@H](Cc1cc(I)c(Oc2ccc(O)c(I)c2)c(I)c1)C(=O)O [Liothyronine] + CCCCNC(=O)OCC#CI [3-iodo-2-propynyl butylcarbamate (IPBC)] >= 80%?
Criterion met

Decide: growth yield of NC(Cc1cc(I)c(Oc2cc(I)c(O)c(I)c2)c(I)c1)C(=O)O (stereo unspecified) [Thyroxine (L)] + CCCCNC(=O)OCC#CI [3-iodo-2-propynyl butylcarbamate (IPBC)] >= 80%?
Criterion met

Decide: growth yield of NNc1nncc2ccccc12 [Hydralazine hydrochloride] + CCCCNC(=O)OCC#CI [3-iodo-2-propynyl butylcarbamate (IPBC)] >= 80%?
Criterion met

Decide: growth yield of COc1ccc2cc(CCC(C)=O)ccc2c1 [Nabumetone] + CCCCNC(=O)OCC#CI [3-iodo-2-propynyl butylcarbamate (IPBC)] >= 80%?
Criterion not met
